Origin of values: the supplement of paper PMC7877785

Recorded self-splicing fitness (ln) for the following sequences
Test protocol: self-splicing fitness, log relative to wild type (ln ratio); higher = more splicing; Tetrahymena group I intron in knt gene, E. coli kanamycin selection, DiMSum; sequences stand for … in CUCUCU…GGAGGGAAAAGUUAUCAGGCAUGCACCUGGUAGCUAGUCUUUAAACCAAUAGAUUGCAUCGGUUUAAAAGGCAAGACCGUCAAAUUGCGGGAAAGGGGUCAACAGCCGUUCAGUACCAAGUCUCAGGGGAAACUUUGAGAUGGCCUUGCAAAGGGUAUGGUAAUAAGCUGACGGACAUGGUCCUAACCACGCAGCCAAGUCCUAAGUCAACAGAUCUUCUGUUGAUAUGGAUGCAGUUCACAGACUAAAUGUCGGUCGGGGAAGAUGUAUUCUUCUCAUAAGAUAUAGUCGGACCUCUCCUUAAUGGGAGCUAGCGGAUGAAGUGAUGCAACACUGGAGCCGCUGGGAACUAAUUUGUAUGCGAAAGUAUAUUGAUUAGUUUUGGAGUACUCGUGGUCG;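 also: selection with 25 µg/mL kanamycin versus none on LB agar overnight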
Condition notes: 30 °C
Endpoint name: self-splicing fitness (ln)

* GAUCAGCAAUAUUACGGGUU | -3.12
* UAACAGCAAUAUUACGUUUA | -0.893
* UUGGAGCAAUAUUACGAUAA | -2.08
* ACAAAGCAAUAUUACGCGCA | -0.72
* CAGUAGCAAUAUUACGUCGU | -2.6
* UGAUAGCAAUAUUACGGUGC | -2.98
* GACUAGCAAUAUUACGGUUC | -3.18
* UAUCAGCAAUAUUACGCCAC | -3.63
* GGGCAGCAAUAUUACGCAUA | -1
* UGGCAGCAAUAUUACGGCAA | 0.308
* CUGCAGCAAUAUUACGGUGG | -3.9
* AGGAAGCAAUAUUACGAUAU | -3.48
* AUGCAGCAAUAUUACGCACU | -0.148
* GUGAAGCAAUAUUACGGUGC | -1.74
* CGUCAGCAAUAUUACGCGAC | -2.57
* GUCCAGCAAUAUUACGCAGU | -0.463

###

Test protocol: self-splicing fitness, log relative to wild type (ln ratio); higher = more splicing; Tetrahymena group I intron in knt gene, E. coli kanamycin selection, DiMSum; sequences stand for … in CUCUCU…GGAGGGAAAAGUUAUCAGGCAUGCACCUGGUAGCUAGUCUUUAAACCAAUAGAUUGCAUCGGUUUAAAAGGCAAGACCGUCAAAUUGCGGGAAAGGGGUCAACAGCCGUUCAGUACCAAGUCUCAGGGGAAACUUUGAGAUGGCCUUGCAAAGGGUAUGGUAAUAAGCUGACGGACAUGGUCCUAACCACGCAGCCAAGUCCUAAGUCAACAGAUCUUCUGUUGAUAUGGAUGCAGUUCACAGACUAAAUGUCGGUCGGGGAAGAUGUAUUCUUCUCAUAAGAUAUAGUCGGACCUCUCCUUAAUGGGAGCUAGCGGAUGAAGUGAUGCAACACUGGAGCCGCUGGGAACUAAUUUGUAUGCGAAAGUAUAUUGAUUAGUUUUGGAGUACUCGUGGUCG
Condition notes: 37 °C
Record Fulfilled whenever self-splicing fitness (ln) is at -0.8 or higher; record Not fulfilled when lower.

• GCAAAGCAAUAUUACGGUGU = Not fulfilled
• AAAAAGCAAUAUUACGAUGG = Not fulfilled
• GAAAAGCAAUAUUACGUUCA = Fulfilled
• CACCAGCAAUAUUACGUAUC = Not fulfilled
• UGAAAGCAAUAUUACGGGAC = Not fulfilled
• AUGCAGCAAUAUUACGUUUA = Not fulfilled
• CAAGAGCAAUAUUACGCUUC = Not fulfilled
• CACAAGCAAUAUUACGUAUU = Not fulfilled
• CAGUAGCAAUAUUACGAAUG = Fulfilled
• GGAAAGCAAUAUUACGGUAA = Fulfilled
• GCAUAGCAAUAUUACGGACA = Fulfilled
• GAAAAGCAAUAUUACGAUGG = Not fulfilled
• CGGAAGCAAUAUUACGACUG = Not fulfilled
• GAAUAGCAAUAUUACGCAGU = Not fulfilled
• CGUCAGCAAUAUUACGUGUA = Not fulfilled
• AGGCAGCAAUAUUACGCAAU = Not fulfilled
• CCAGAGCAAUAUUACGCCGC = Fulfilled
• AUGUAGCAAUAUUACGGCAC = Fulfilled
• AUUCAGCAAUAUUACGUAAA = Fulfilled
• AGUGAGCAAUAUUACGGUGU = Not fulfilled
• AUGCAGCAAUAUUACGCGAA = Not fulfilled
• UCCUAGCAAUAUUACGUCCG = Not fulfilled
• AAGAAGCAAUAUUACGAUGA = Fulfilled
• GCUAAGCAAUAUUACGUACC = Fulfilled
• GGACAGCAAUAUUACGACUA = Fulfilled
• GCCAAGCAAUAUUACGGUGC = Not fulfilled
• GCUCAGCAAUAUUACGUGGU = Not fulfilled
• CUACAGCAAUAUUACGAAAA = Not fulfilled
• CCCAAGCAAUAUUACGGAGC = Not fulfilled
• CUAUAGCAAUAUUACGUGGC = Not fulfilled
• GACGAGCAAUAUUACGCGAA = Not fulfilled
• GACAAGCAAUAUUACGUAAG = Not fulfilled
• AACUAGCAAUAUUACGAGAG = Not fulfilled
• UCCUAGCAAUAUUACGGUGA = Fulfilled
• AAUAAGCAAUAUUACGAGCG = Fulfilled
• AUUUAGCAAUAUUACGUAAU = Fulfilled
• CUAAAGCAAUAUUACGCCUG = Fulfilled
• CGCCAGCAAUAUUACGAGUC = Not fulfilled
• GGGGAGCAAUAUUACGCACA = Not fulfilled
• CACGAGCAAUAUUACGGCUC = Not fulfilled
• UUCUAGCAAUAUUACGUUUC = Not fulfilled
• AUCGAGCAAUAUUACGGACG = Not fulfilled
• UGUAAGCAAUAUUACGACUU = Fulfilled
• UGUCAGCAAUAUUACGUACG = Fulfilled
• UUCUAGCAAUAUUACGAUAU = Not fulfilled
• AUAAAGCAAUAUUACGGCUA = Fulfilled
• AGAAAGCAAUAUUACGUCAU = Not fulfilled
• UCGCAGCAAUAUUACGAUAG = Not fulfilled
• GUGCAGCAAUAUUACGUCAU = Not fulfilled
• GGACAGCAAUAUUACGGUGG = Not fulfilled
• GUCGAGCAAUAUUACGACUC = Not fulfilled
• CCCCAGCAAUAUUACGAGCG = Not fulfilled
• UUGUAGCAAUAUUACGUGGC = Not fulfilled
• UAAAAGCAAUAUUACGGUGU = Not fulfilled
• GGCGAGCAAUAUUACGAAAU = Not fulfilled
• UUUCAGCAAUAUUACGGCUG = Not fulfilled
• GUUAAGCAAUAUUACGGAUU = Fulfilled
• UGGCAGCAAUAUUACGCGUA = Fulfilled
• GCCUAGCAAUAUUACGUUCC = Fulfilled
• CUACAGCAAUAUUACGGAUA = Not fulfilled
• CCCGAGCAAUAUUACGGCGU = Not fulfilled
• UUCUAGCAAUAUUACGAAGG = Not fulfilled
• CAGUAGCAAUAUUACGUGCG = Fulfilled
• GACGAGCAAUAUUACGAAAG = Not fulfilled
• AAAGAGCAAUAUUACGUAAA = Not fulfilled
• CCCCAGCAAUAUUACGUAGG = Not fulfilled
